Listing of IC50 toward PIK3CD (Human) (UniProt O00329), each taken from a published source.

COMPOUND | IC50
C[C@H](Nc1ncnc2cccnc12)c1cc2cccc(Cl)c2c(OC2CCN(S(C)(=O)=O)CC2)n1 | < 100 nM
O=C(c1cnc2ccc(-c3ccc4c(Nc5ccccc5)noc4c3)cn12)N1CCOCC1 | < 1000 nM
Nc1nc2cc(-c3ccc4ncc(C(=O)N5CCCC5)n4c3)ccc2o1 | < 1000 nM
CC(C)C(=O)N1CCN(Cc2csc3c(-c4cncc(NS(C)(=O)=O)c4)nc(N4CCOCC4)nc23)CC1 | 4.9 nM
C[C@H](O)C(=O)N1CCN(Cc2csc3c(-c4cccc5[nH]ncc45)nc(N4CCOCC4)nc23)CC1 | 18 nM
Nc1nc2cc(-c3ccc4ncc(-c5ccncc5)nc4c3)ccc2o1 | < 1000 nM
Nc1ncc(-c2nc(N3CCOCC3)nc3c(CN4CCN(C(=O)CO)CC4)csc23)cn1 | 38 nM
CC1CN(C(=O)c2nc([C@H](C)Nc3ncnc4scnc34)cc3cccc(Cl)c23)CCO1 (some centres unmarked) | < 100 nM

---

Listing of IC50 toward PIK3CD (Human) (UniProt O00329), each taken from a published source.
EXPERIMENTAL ENDPOINT: IC50 (nM)

QUERY SMILES | READOUT RELATION | EXPERIMENTAL RESULT
FC[C@@H]1CCCN1[C@H]1CC[C@H](CNc2nc(N3CCOCC3)cc(-n3c(C(F)F)nc4ccccc43)n2)CC1 | = | 6
CCN(CC)c1ncc2c(n1)-c1sc(NC(=O)N3C[C@@H](F)C[C@H]3C(N)=O)nc1CC2 | = | 236
Cc1cccc2cc([C@H](C)Nc3ncnc4[nH]cnc34)nc(OCC3CCN(C)CC3)c12 | < | 100
C[C@H](Nc1ncnc2[nH]cnc12)c1cc2cccc(Cl)c2c(S(=O)(=O)CCN2CCOCC2)n1 | < | 1000
COc1cc(-c2nn(C3Cc4ccccc4C3)c3ncnc(N)c23)ccc1C | = | 119
C[C@H]1CN(C2CN(c3cnc4ccc(-c5ccc6nc(N)[nH]c6c5)nc4c3)C2)CCN1C | > | 10000
CC(C)C(=O)N1CCN(Cc2csc3c(-c4cnn(C)c4)nc(N4CCOCC4)nc23)CC1 | = | 87
Cc1ccccc1-n1c(Cn2nc(-c3ccc(CN)cc3)c3c(N)ncnc32)cc2cccc(C)c2c1=O | < | 10000

---

Listing of IC50 toward PIK3CD (Human), each taken from a published source.

MOLECULE | IC50
C[C@H](Nc1ncnc2[nH]cnc12)c1cc2cccc(Cl)c2c(C(=O)N(C)C2CCOCC2)n1 | < 1000 nM
Cc1ccccc1-n1c(Cn2nc(C#CCO)c3c(N)ncnc32)cc2cccc(C)c2c1=O | < 100 nM
N#Cc1cc(-c2cn(C3Cc4ccccc4C3)c3ncnc(N)c23)cc(O)c1F | 1.9 nM
Cc1cccc2cc([C@H](C)Nc3nc(Cl)nc4[nH]cnc34)n(-c3ccccc3)c(=O)c12 | < 100 nM
C[C@H](Nc1ncnc2[nH]cnc12)c1cc2cccc(-c3cnn(C)c3)c2c(CCN2CCOCC2)n1 | < 1000 nM
Cc1ccccc1-n1c(Cn2nc(-c3cnn(C)c3)c3c(N)ncnc32)cc2cccc(C)c2c1=O | < 10000 nM
Cc1cccnc1-n1c(Cn2nc(-c3ccc(F)c(O)c3)c3c(N)ncnc32)cc2cccc(C)c2c1=O | < 100 nM
Nc1nc2cc(-c3ccc4ncc(N5CCC(N)CC5)nc4c3)ccc2o1 | < 10000 nM
O=C1CC[C@@H](C(=O)N2CC(Nc3cc(-n4c(C(F)F)nc5ccccc54)nc(N4CCOCC4)n3)C2)N1 | 14 nM
C=C(C)c1nn(Cc2cc3cccc(C)c3c(=O)n2-c2ccccc2)c2ncnc(N)c12 | < 100 nM
CC(=O)Nc1cccc(-c2cccc3cc([C@H](C)NC(=O)c4c(N)nn5cccnc45)n(-c4ccccc4)c(=O)c23)c1 | 1000 to 10000 nM
COC(=O)N1CC(N2Cc3c(F)c(Cl)cc(C(C)n4nc(C)c5c(N)ncnc54)c3OC(C)C2)C1 (single isomer, unassigned) | ≤ 100 nM
CNc1ncc(Cl)c(N[C@@H](C)c2cc3cccc(C)c3c(=O)n2-c2ccccc2)n1 | < 1000 nM
Cc1ccccc1-n1c(Cn2nc(-c3ccc(Cl)cc3)c3c(N)ncnc32)cc2cccc(C)c2c1=O | < 1000 nM
FC[C@H]1CCCN1[C@H]1CC[C@H](CNc2cc(-n3c(C(F)F)nc4ccccc43)nc(N3CCOCC3)n2)CC1 | 4.7 nM

---

pIC50: −log10 of the molar value.
Listing of pIC50 toward UniProtKB O00329, each taken from a published source.
EXPERIMENTAL ENDPOINT: pIC50

QUERY SMILES | READOUT RELATION | EXPERIMENTAL RESULT
CC[C@H](Nc1ncnc2[nH]ccc12)c1nc2cccc(F)c2c(=O)n1-c1cccc(CC(F)(F)F)c1 | = | 7.30
C[C@H](Nc1cc(F)c2c(c1)OCCn1cc(N3C(=O)OC[C@H]3C(F)F)nc1-2)C(N)=O | = | 6.34
Cc1nc(NC(=O)N2CCC[C@H]2C(N)=O)sc1-c1ccnc(-c2ccccc2F)c1 | = | 6.36
C[C@H](Nc1ccnn2ccnc12)c1cc2cccc(Cl)c2c(OC2CCN(S(C)(=O)=O)CC2)n1 | > | 7.00

---

Listing of pIC50 toward PIK3CD (Human) (UniProt O00329), each taken from a published source.
pIC50: −log10 of the molar value.
EXPERIMENTAL ENDPOINT: pIC50

MOLECULE | EXPERIMENTAL RESULT
N#Cc1cc2cnc(Nc3ccc(N4CCNCC4)cc3)nc2n(C2CCc3ccccc32)c1=O (centres unmarked) | 6.19
CS(=O)(=O)N1CCC(Nc2ncc3cc(C#N)c(=O)n(C4CCC4)c3n2)CC1 | 5.70
Cc1cccc2cc([C@H](C)Nc3ncnc4[nH]cc(C#N)c34)n(-c3ccccc3)c(=O)c12 | > 7.00
N#Cc1ccc(NC(=O)N[C@H]2CC[C@H](Nc3cc(-n4c(C(F)F)nc5ccccc54)nc(N4CCOCC4)n3)CC2)cc1 | 8.74
C[C@H]1CN(c2cnc3ccc(-c4ccc5oc(N)nc5c4)nc3n2)CCN1 | > 5.00
CN1CCN(c2ccc3ncc(-c4ccc5oc(N)nc5c4)cc3n2)CC1 | < 5.00
C[C@H](NC(=O)c1c(N)nn2cccnc12)c1cc2cccc(N(C)C)c2c(=O)n1-c1ccccc1 | < 5.00
CC(=O)Nc1nc2cc(-c3nn(Cc4cc5cccc(C)c5c(=O)n4-c4ccccc4)c4ncnc(N)c34)ccc2s1 | > 6.00

---

pIC50: −log10 of the molar value.
Listing of pIC50 toward PIK3CD (Human) (UniProt O00329), each taken from a published source.

MOLECULE | READOUT RELATION | pIC50
CN1CCN(c2nnc3ccc(-c4ccc5nc(N)oc5c4)cn23)CC1 | < | 5.00
CN(CC(C)(C)O)[C@H]1CC[C@H](COc2cc(-n3c(C(F)F)nc4ccccc43)nc(N3CCOCC3)n2)CC1 | = | 7.52
COCCN(C1CC1)[C@H]1CC[C@H](CNc2nc(N3CCOCC3)cc(-n3c(C(F)F)nc4ccccc43)n2)CC1 | = | 8.26
CC(C)(C#N)c1ccc(Nc2ncnc3ccc(-c4ccc5oc(N)nc5c4)cc23)cc1 | > | 6.00
Cc1cccc2cc(Cn3nc(Br)c4c(N)ncnc43)n(-c3ccccc3F)c(=O)c12 | > | 6.00
C[C@H](Nc1ncnc2[nH]cnc12)c1cc2cccc(Cl)c2c(C(=O)NCc2ccccc2)n1 | > | 7.00
Nc1ncnc2c1c(-c1cc(O)cc(F)c1)nn2Cc1cc2cccc(Cl)c2c(=O)n1C1CC1 | > | 7.00
FC(F)c1nc2ccccc2n1-c1cc(N2CCOCC2)nc(NCC2CCN(C3CCC(F)(F)CC3)CC2)n1 | = | 7.77
CCN(C(C)COC)[C@H]1CC[C@H](CNc2nc(N3CCOCC3)cc(-n3c(C(F)F)nc4ccccc43)n2)CC1 (stereo partly drawn) | = | 8.55
Nc1ncc(-c2cc(N3C(=O)O[C@@H]4[C@@H](O)CC[C@@H]43)nc(N3CCOCC3)n2)c(C(F)(F)F)n1 (racemic) | = | 8.22
Cc1cc(-c2ccc3nc(N)oc3c2)cn2c(CCN3CCN(C)CC3)nnc12 | < | 5.00
CCC(Nc1ncnc2[nH]cnc12)c1cc2cccc(C)c2c(=O)n1-c1c(F)cccc1F (stereo not drawn) | > | 5.00
FC[C@@H]1CCCN1[C@H]1CC[C@@H](COc2cc(-n3c(C(F)F)nc4ccccc43)nc(N3CCOCC3)n2)CC1 | = | 7.82
Cc1ccccc1-n1c(Cn2nc(-c3ccc4nc(N)ncc4c3)c3c(N)ncnc32)cc2cccc(C)c2c1=O | > | 7.00
